Tested target: T1, human G-protein-coupled receptor family C group 5 member D (GPRC5D) (human, UniProt Q9NZD1 1-345)
T1 construct: whole, on cells; also called human GPRC5D protein
T1 sequence (Q9NZD1 whole entry): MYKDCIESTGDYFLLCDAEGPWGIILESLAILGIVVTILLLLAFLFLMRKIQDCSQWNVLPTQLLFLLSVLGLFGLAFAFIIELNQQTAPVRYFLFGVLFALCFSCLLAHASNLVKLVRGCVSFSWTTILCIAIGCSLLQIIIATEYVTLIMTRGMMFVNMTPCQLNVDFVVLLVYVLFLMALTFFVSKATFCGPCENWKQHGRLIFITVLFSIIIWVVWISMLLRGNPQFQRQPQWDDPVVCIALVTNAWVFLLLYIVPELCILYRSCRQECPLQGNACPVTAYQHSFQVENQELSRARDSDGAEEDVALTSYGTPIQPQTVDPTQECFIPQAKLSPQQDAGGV
Test: FACS, CHO-K1/GPRC5D
Outcome measure: Span
Reply with just the number.

- 34-H3L1 (antibody, V domains shown, humanized 34D3H1, VH v3 x VL v1) VH: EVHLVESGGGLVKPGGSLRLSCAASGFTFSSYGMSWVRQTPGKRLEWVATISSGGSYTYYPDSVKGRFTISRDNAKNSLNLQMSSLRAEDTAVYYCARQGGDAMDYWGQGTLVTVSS VL: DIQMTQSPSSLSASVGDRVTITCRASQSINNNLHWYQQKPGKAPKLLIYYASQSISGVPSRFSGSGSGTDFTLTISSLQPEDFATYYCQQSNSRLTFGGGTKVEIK: 167000

## Input Fill in: Span of 34-H2L2 (antibody, V domains shown, humanized 34D3H1, VH v2 x VL v2) VH: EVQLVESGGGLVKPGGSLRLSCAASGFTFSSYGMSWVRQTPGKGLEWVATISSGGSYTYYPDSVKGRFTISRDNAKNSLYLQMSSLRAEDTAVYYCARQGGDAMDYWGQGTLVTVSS VL: DIQMTQSPSSLSASVGDRVTITCRASQSINNNLHWYQQKPGKAPKLLIYYASQSISGIPSRFSGSGSGTDFTLTISSVQPEDFATYFCQQSNSRLTFGGGTKVEIK is ___
## Output 170000
